experiment: Biodistribution of 99mTc complexes in mice
Type: in vivo, Balb/c mice
conditions.used: 3 min
Protocol: A series of derivatives incorporating carboxyl and phenolate donor groups (1-6) were synthesised by literature method and their radiolabelling characteristic and biological behaviour evaluated. […] A typical method of radiolabelling of the chelator was achieved by dissolving the chelator in a basic solution of saline. […] The efficacy of labelling was determined by ITLC-SG. […]
Form field: biodistribution heart (one value per entry).
Report the figure in % Injected dose without appending any unit label.

Use the examples below as a reference point.
Recorded biodistribution heart of O=C(O)CN(CCN(CC(=O)O)CC(=O)Nc1ccc(Cl)cc1O)CC(=O)Nc1ccc(Cl)cc1O , please.
0.34

Name the reported biodistribution heart value associated with the compound Cc1cc(C)c(O)c(NC(=O)CN(CCN(CC(=O)O)CC(=O)Nc2cc(C)cc(C)c2O)CC(=O)O)c1
0.2

Look at this compound and give its reported biodistribution heart. CC(C)(C)c1ccc(O)c(NC(=O)CN(CCN(CC(=O)O)CC(=O)Nc2cc(C(C)(C)C)ccc2O)CC(=O)O)c1
0.22

Further cases:
Give its biodistribution heart value. Item: O=C(O)CN(CCN(CC(=O)O)CC(=O)Nc1ccccc1O)CC(=O)Nc1ccccc1O
0.23

====

experiment: Biodistribution of 99mTc complexes in rats
Type: in vivo, Australian Albino Wistar Rats
conditions.used: rat, lungs, rats, 1 min, read-out: biodistribution lungs
Experimental: A typical method of radiolabelling of the chelator was achieved by dissolving the chelator in a basic solution of saline. The pH was then adjusted to approx. 6 with HCl. Excess stannous chloride was added to the resultant solution followed by one equivalent volume of sodium ^99m TcO4 (10-50 mCi/ml). Final concentration of the chelator was approx. 1 mg/ml. The efficacy of labelling was determined by ITLC-SG. For each product only one main radiochemical species was observed. […]
endpoint.name: tissue uptake at 1 min (%ID/g)
Field: numeric (%ID/g). Do not append units.

Use the examples below as a reference point.
Given CC(C)(C)c1ccc(O)c(NC(=O)CN(CCN(CC(=O)O)CC(=O)Nc2cc(C(C)(C)C)ccc2O)CC(=O)O)c1 , state its recorded tissue uptake at 1 min.
1.67

Give the measured tissue uptake at 1 min of O=C(O)CN(CCN(CC(=O)O)CC(=O)Nc1ccccc1O)CC(=O)Nc1ccccc1O .
1.13

Given O=C(O)CN(CCN(CC(=O)O)CC(=O)Nc1ccc(Cl)cc1O)CC(=O)Nc1ccc(Cl)cc1O , state its recorded tissue uptake at 1 min.
1.17

If you can, please state the reported tissue uptake at 1 min value of Nc1ccc(O)c(NC(=O)CN(CCN(CC(=O)O)CC(=O)Nc2cc(N)ccc2O)CC(=O)O)c1 .
1.69

Next:
// query tissue uptake at 1 min value for entry O=C(O)CN(CCN(CC(=O)O)CC(=O)Nc1cc([N+](=O)[O-])ccc1O)CC(=O)Nc1cc([N+](=O)[O-])ccc1O
1.04

====

experiment: Biodistribution of compound No. 6 in mice (Table 6)
Format: in vivo, Balb/c mice
conditions.used: mouse, tail, 5 min, read-out: biodistribution tail
endpoint.name: tissue uptake at 5 min (%ID/g)
State the answer as a number, implicitly in %ID/g.

Would you mind telling me what tissue uptake at 5 min value was observed for Cc1cc(C)c(O)c(NC(=O)CN(CCN(CC(=O)O)CC(=O)Nc2cc(C)cc(C)c2O)CC(=O)O)c1 ?
6.18

====

experiment: Biodistribution of 99mTc complexes in rats
Assay type: in vivo, Australian Albino Wistar Rats
conditions.used: rat, blood, rats, 3 minutes, selected data, read-out: Blood
Description: A typical method of radiolabelling of the chelator was achieved by dissolving the chelator in a basic solution of saline. The pH was then adjusted to approx. 6 with HCl. Excess stannous chloride was added to the resultant solution followed by one equivalent volume of sodium ^99m TcO4 (10-50 mCi/ml). Final concentration of the chelator was approx. 1 mg/ml. The efficacy of labelling was determined by ITLC-SG. For each product only one main radiochemical species was observed. […]
Entries and their measured tissue uptake at 0.05 h follow.
Show the value, then the unit it is measured in.

Before answering, review these 2 worked examples.
What tissue uptake at 0.05 h value was documented for this molecule, O=C(O)CN(CCN(CC(=O)O)CC(=O)Nc1ccc(Cl)cc1O)CC(=O)Nc1ccc(Cl)cc1O [Compound 2] ?
1.32 %ID/g

For the molecule shown here, O=C(O)CN(CCN(CC(=O)O)CC(=O)Nc1ccccc1O)CC(=O)Nc1ccccc1O [Compound 1] , give the reported tissue uptake at 0.05 h.
1.16 %ID/g

More entries:
Field request: tissue uptake at 0.05 h | item: CC(C)(C)c1ccc(O)c(NC(=O)CN(CCN(CC(=O)O)CC(=O)Nc2cc(C(C)(C)C)ccc2O)CC(=O)O)c1 [Compound 4]
1.71 %ID/g

====

experiment: Biodistribution of 99mTc complexes in mice
Type: in vivo, Balb/c mice
conditions.used: 1 min
The threshold is inclusive: biodistribution bone of exactly 6 % Injected dose counts as yes (1); values below receive no (0).

For this compound, is measured biodistribution bone 6 % Injected dose or higher? O=C(O)CN(CCN(CC(=O)O)CC(=O)Nc1ccc(Cl)cc1O)CC(=O)Nc1ccc(Cl)cc1O
yes (1)

Continuing:
Confirm if biodistribution bone reported for the compound Cc1cc(C)c(O)c(NC(=O)CN(CCN(CC(=O)O)CC(=O)Nc2cc(C)cc(C)c2O)CC(=O)O)c1 is 6 % Injected dose or above.
yes (1)

In plain terms: is recorded biodistribution bone at least 6 % Injected dose for O=C(O)CN(CCN(CC(=O)O)CC(=O)Nc1ccccc1O)CC(=O)Nc1ccccc1O ?
no (0)

Is reported biodistribution bone greater than or equal to 6 % Injected dose here: CC(C)(C)c1ccc(O)c(NC(=O)CN(CCN(CC(=O)O)CC(=O)Nc2cc(C(C)(C)C)ccc2O)CC(=O)O)c1
yes (1)

====

experiment: Biodistribution of 99mTc complexes in rats
Type: in vivo, Australian Albino Wistar Rats
conditions.used: rat, brain, rats, 5 min, read-out: biodistribution brain
endpoint.name: tissue uptake at 5 min

# count of solved cases: 4
// returns reported tissue uptake at 5 min for input Nc1ccc(O)c(NC(=O)CN(CCN(CC(=O)O)CC(=O)Nc2cc(N)ccc2O)CC(=O)O)c1
0.17 %ID/g

Given the compound O=C(O)CN(CCN(CC(=O)O)CC(=O)Nc1ccc(Cl)cc1O)CC(=O)Nc1ccc(Cl)cc1O , what is its reported tissue uptake at 5 min?
0.04 %ID/g

Using the record for CC(C)(C)c1ccc(O)c(NC(=O)CN(CCN(CC(=O)O)CC(=O)Nc2cc(C(C)(C)C)ccc2O)CC(=O)O)c1 , report its tissue uptake at 5 min.
0.08 %ID/g

Which tissue uptake at 5 min value belongs to O=C(O)CN(CCN(CC(=O)O)CC(=O)Nc1ccccc1O)CC(=O)Nc1ccccc1O ?
0.05 %ID/g

Turning to the following compound.
Look up tissue uptake at 5 min for this compound: O=C(O)CN(CCN(CC(=O)O)CC(=O)Nc1cc([N+](=O)[O-])ccc1O)CC(=O)Nc1cc([N+](=O)[O-])ccc1O
0.08 %ID/g

====

Items are presented alongside their recorded biodistribution bone.
experiment: Biodistribution of 99mTc complexes in mice
Assay type: in vivo, Balb/c mice
conditions.used: 5 min
Give just the number in % Injected dose; leave the unit off.

// solved cases for biodistribution bone follow
Consider the compound shown here: O=C(O)CN(CCN(CC(=O)O)CC(=O)Nc1ccccc1O)CC(=O)Nc1ccccc1O [Compound 1] What is its recorded biodistribution bone?
2.88

Given the entry Cc1cc(C)c(O)c(NC(=O)CN(CCN(CC(=O)O)CC(=O)Nc2cc(C)cc(C)c2O)CC(=O)O)c1 [Compound 6] , report its measured biodistribution bone.
3.86

I am curious: what biodistribution bone value has been reported for O=C(O)CN(CCN(CC(=O)O)CC(=O)Nc1ccc(Cl)cc1O)CC(=O)Nc1ccc(Cl)cc1O [Compound 2] ?
2.99

Field: next compound
What value of biodistribution bone has been reported for the following compound? CC(C)(C)c1ccc(O)c(NC(=O)CN(CCN(CC(=O)O)CC(=O)Nc2cc(C(C)(C)C)ccc2O)CC(=O)O)c1 [Compound 4]
2.84

====

experiment: Biodistribution of 99mTc complexes in rats
Format: in vivo, Australian Albino Wistar Rats
conditions.used: rat, tail, rats, 10 min, read-out: biodistribution tail
If the reported tissue uptake at 10 min equals or exceeds 0.8 %ID/g, assign satisfied. If not, assign not satisfied.

Decide: is the reported value of tissue uptake at 10 min for O=C(O)CN(CCN(CC(=O)O)CC(=O)Nc1cc([N+](=O)[O-])ccc1O)CC(=O)Nc1cc([N+](=O)[O-])ccc1O equal to or greater than 0.8 %ID/g?
satisfied

Please tell me: is the compound O=C(O)CN(CCN(CC(=O)O)CC(=O)Nc1ccc(Cl)cc1O)CC(=O)Nc1ccc(Cl)cc1O at or over 0.8 %ID/g in terms of tissue uptake at 10 min?
not satisfied

Hello, I need to know if Nc1ccc(O)c(NC(=O)CN(CCN(CC(=O)O)CC(=O)Nc2cc(N)ccc2O)CC(=O)O)c1 has measured tissue uptake at 10 min not below 0.8 %ID/g. Thanks!
not satisfied

Further cases:
Check the entry CC(C)(C)c1ccc(O)c(NC(=O)CN(CCN(CC(=O)O)CC(=O)Nc2cc(C(C)(C)C)ccc2O)CC(=O)O)c1 : does tissue uptake at 10 min equal or exceed 0.8 %ID/g?
not satisfied

Does O=C(O)CN(CCN(CC(=O)O)CC(=O)Nc1ccccc1O)CC(=O)Nc1ccccc1O have a reported tissue uptake at 10 min of at least 0.8 %ID/g?
satisfied
